molecular target: HLA-A*24:02 (Homo sapiens, UniProt P04439, D101N/D140Y/D185E/E176V/E190D/F33S/G103R/G107R/I119L/I121M/I306V/K335N/L105A/L180Q/L300P/N151K/N90K/Q86E/Q94H/R106L/R138H/R89G/T104I/T345S/V100E/W191G/Y123F); format: binding; conditions: percent relative the binding of positive control peptide RYLKDQQLL; duplicated experiments; positive binder >40%
property: Bind A*24:02 (%)
Please state the figure in %; there is no need to write the unit.

Below are worked cases with known answers.
INSERT INTO assay_data (chain, result_value) VALUES
  ('MTEQQWNFA [Rv3875_1–9]', 0),
  ('QQWNFAGIE [Rv3875_4–12]', 0),
  ('AWGGSGSEA [Rv3875_42–50]', 4);

Quote Bind A*24:02 reported for TATELNNAL [Rv3875_61–69] please.
15

Quote Bind A*24:02 reported for IQGNVTSIH [Rv3875_18–26] please.
0

Quote Bind A*24:02 reported for SAIQGNVTS [Rv3875_16–24] please.
15

Quote Bind A*24:02 reported for AGQAMASTE [Rv3875_79–87] please.
0

Quote Bind A*24:02 reported for RTISEAGQA [Rv3875_74–82] please.
0

Quote Bind A*24:02 reported for SGSEAYQGV [Rv3875_46–54] please.
54

Quote Bind A*24:02 reported for QQKWDATAT [Rv3875_55–63] please.
0

Quote Bind A*24:02 reported for EAAASAIQG [Rv3875_12–20] please.
0

Quote Bind A*24:02 reported for GVQQKWDAT [Rv3875_53–61] please.
0

Quote Bind A*24:02 reported for ALQNLARTI [Rv3875_68–76] please.
0

Quote Bind A*24:02 reported for AMASTEGNV [Rv3875_82–90] please.
0

Quote Bind A*24:02 reported for AIQGNVTSI [Rv3875_17-25] please.
9

Sourced from paper PMC3608651
